Each record here notes measured Kd.
Target: T1, human factor X (human, UniProt P00742 41-179; P00742 183-488)
T1 construct: Zymogen used as analyte in SPR; also called FX; Human FX (MW ~58 KDa)
T1 sequence (P00742 41-179, chain 1 of 2): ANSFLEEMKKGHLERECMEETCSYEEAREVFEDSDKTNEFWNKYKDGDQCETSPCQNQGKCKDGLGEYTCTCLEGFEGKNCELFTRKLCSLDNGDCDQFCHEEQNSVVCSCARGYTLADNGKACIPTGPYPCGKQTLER
T1 sequence (P00742 183-488, chain 2 of 2): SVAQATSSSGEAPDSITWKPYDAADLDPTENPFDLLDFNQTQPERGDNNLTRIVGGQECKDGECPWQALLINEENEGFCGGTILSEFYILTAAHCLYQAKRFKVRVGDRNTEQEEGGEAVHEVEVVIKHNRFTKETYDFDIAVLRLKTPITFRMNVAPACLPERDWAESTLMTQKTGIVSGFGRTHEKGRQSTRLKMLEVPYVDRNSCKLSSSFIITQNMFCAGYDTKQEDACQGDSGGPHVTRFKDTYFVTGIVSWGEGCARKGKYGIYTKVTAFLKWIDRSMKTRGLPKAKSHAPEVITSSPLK
Test: SPR as in Example 10, human FX as analyte

binder: TINA-0201.0128 (antibody, V domains shown, Monospecific IgG4PE) VH: QVQLIQSGAEVKKPGASVKVSCKASRYSFTSYYMHWVRQAPGQGLEWMGIINPKSGSTSYAQKFQGRVTMTRDTSTSTVYMELSSLRSEDTAVYYCARDGYGSSSRCLQLWGQGTLVTVSS VL: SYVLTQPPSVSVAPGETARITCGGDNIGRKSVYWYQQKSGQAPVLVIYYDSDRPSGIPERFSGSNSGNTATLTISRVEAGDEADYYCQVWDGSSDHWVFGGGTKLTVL
reading unit: nM
Kd: 816
--
binder: TINA-0616.0128 (antibody, V domains shown, Monospecific IgG; position is IMGT numbering, not a count on the entry) VH: QVQLIQSGAEVKKPGASVKVSCKASRYSFTSYYMHWVRQAPGQGLEWMGIINPKSGSTSYAQKFQGRVTMTRDTSTSTVYMELSSLRSEDTAVYYCARDGYGSSSRCIQLWGQGTLVTVSS VL: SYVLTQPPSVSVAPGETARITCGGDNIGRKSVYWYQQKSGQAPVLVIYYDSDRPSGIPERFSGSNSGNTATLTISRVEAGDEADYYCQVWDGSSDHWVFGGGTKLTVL
reading unit: nM
Kd: 530
